Parameter 'readout' = AC50; parameter 'system' = Sodium-dependent dopamine transporter (Homo sapiens, UniProt Q01959). Also: assay procedure not described here.
Sequence (Q01959 whole entry): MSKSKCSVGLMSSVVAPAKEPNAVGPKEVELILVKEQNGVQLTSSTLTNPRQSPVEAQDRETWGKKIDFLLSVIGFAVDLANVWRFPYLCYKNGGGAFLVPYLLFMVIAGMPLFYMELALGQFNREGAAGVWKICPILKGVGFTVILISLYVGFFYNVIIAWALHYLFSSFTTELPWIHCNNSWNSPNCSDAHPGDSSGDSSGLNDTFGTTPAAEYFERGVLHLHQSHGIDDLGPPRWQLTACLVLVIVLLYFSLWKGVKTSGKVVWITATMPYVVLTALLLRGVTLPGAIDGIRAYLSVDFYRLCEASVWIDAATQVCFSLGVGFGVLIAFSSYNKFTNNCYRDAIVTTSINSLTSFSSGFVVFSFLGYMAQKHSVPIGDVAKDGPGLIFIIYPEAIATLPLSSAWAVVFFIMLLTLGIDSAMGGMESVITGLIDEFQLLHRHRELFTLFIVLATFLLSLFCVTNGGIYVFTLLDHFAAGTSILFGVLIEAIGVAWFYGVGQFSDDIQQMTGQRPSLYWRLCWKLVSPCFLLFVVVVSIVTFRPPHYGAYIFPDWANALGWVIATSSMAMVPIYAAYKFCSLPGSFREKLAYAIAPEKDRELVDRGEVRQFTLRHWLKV
Your answer should be a plain number; it is taken to be in µM.

Reported AC50, molecule CN1CCC2=C(C1)c1ccccc1Cc1ccccc12 : ____
24.1

Continue with Nc1ccc(/N=N/c2ccccc2)c(N)n1
4.71

Note, next up: Nc1nc2ccc(OC(F)(F)F)cc2s1
18.7

For C#C[C@]1(O)CC[C@H]2[C@@H]3CCc4cc(O)ccc4[C@H]3CC[C@@]21C then?
0.8

---

TESTED_ON: Muscarinic acetylcholine receptor M1 (Homo sapiens)
Sequence (P11229 whole entry): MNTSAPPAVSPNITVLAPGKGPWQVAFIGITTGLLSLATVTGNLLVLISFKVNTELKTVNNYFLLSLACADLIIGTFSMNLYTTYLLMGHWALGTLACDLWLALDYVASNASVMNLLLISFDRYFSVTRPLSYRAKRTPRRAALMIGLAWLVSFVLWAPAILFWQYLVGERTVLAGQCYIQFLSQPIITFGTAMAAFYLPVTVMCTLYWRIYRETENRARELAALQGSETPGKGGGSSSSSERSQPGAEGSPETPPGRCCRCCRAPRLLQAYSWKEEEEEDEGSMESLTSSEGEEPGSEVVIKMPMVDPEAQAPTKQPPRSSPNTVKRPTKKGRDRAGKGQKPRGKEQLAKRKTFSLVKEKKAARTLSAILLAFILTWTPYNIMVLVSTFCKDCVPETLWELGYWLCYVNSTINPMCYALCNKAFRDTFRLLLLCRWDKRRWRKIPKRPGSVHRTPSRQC
Assay type: functional, cell-based
Record form. Attribute: AC50. Fill in for each entry.

Request body: readout AC50, system Muscarinic acetylcholine receptor M1 (Homo sapiens), query CCO/N=C(\C(=O)N[C@@H]1C(=O)N2C(C(=O)[O-])=C(Sc3nc(-c4cc[n+](C)cc4)cs3)CS[C@H]12)c1nsc(N)n1 . Return the value. Also: assay procedure not described here.
> 30 µM

Then this molecule: CN(C)C(=O)Oc1ccc[n+](C)c1
> 30 µM

Ok, now CS(=O)(=O)Nc1cc2occ(NC=O)c(=O)c2cc1Oc1ccccc1
> 30 µM

Do the same for CN1CCC2=C(C1)c1ccccc1Cc1ccccc12 please
8.28 µM

Also check C[C@@H]1C[C@H]2[C@@H]3C[C@H](F)C4=CC(=O)C(Cl)=C[C@]4(C)[C@@]3(F)[C@@H](O)C[C@]2(C)[C@@]1(O)C(=O)CO
13.1 µM

C(=N\NC1=NCCN1)/c1c2ccccc2c(/C=N/NC2=NCCN2)c2ccccc12 , same question.
6.37 µM

What about this molecule? O=[N+]([O-])c1cncn1CCN1CCOCC1
> 30 µM

What would you report for CCOC(=O)CC(SP(=S)(OC)OC)C(=O)OCC (stereo not drawn) ?
27.1 µM

Field entry: CC/C=C\C/C=C\C/C=C\C/C=C\C/C=C\CCCC(=O)O
> 30 µM

Could you do the same for Cc1nc(-c2ccc(OCC(C)C)c(C#N)c2)sc1C(=O)O , please?
16.1 µM

How about O=C1c2c(O)c(=O)ccn2N([C@@H]2c3ccccc3SCc3c2ccc(F)c3F)[C@@H]2COCCN12 ?
> 30 µM

Try C[C@@H]1C[C@H]2[C@@H]3C[C@H](F)C4=CC(=O)C=C[C@]4(C)[C@@]3(F)[C@@H](O)C[C@]2(C)[C@@]1(O)C(=O)COC(=O)C(C)(C)C [FLUMETHASONE PIVALATE] next.
> 30 µM

Same read-out for CC[C@@H]1/C=C(\C)C[C@H](C)C[C@H](OC)[C@H]2O[C@@](O)(C(=O)C(=O)N3CCCC[C@H]3C(=O)O[C@H](/C(C)=C/[C@@H]3CC[C@H](Cl)[C@H](OC)C3)[C@H](C)[C@@H](O)CC1=O)[C@H](C)C[C@@H]2OC ?
> 30 µM

Ok, now NS(=O)(=O)c1cc2c(cc1Cl)NC(C1CC3C=CC1C3)NS2(=O)=O (stereo not drawn) [CYCLOTHIAZIDE]
17.6 µM

Note, next up: C[N+](C)(C)CCCCCCCCCC[N+](C)(C)C
> 30 µM

Same again, this time with O=C(Nc1ccccc1)OCC(CN1CCCCC1)OC(=O)Nc1ccccc1 (stereo not drawn)
> 30 µM

Next entry: CC(=O)Oc1c(C)cc(OCC(O)CNC(C)C)c(C)c1C (stereo not drawn)
> 30 µM

# iterate: CC(C(=O)O)c1ccc(N2CC=CC2)c(Cl)c1 (stereo not drawn)
28.7 µM

Proceed to OCCN1CCN(CCCN2c3ccccc3C=Cc3ccccc32)CC1
25.7 µM

Do the same for O=C1CN=C(c2ccccc2)c2c(sc3c2CCCC3)N1 please
> 30 µM

Same read-out for O=C(COc1ccc(Cl)cc1)N1CCN(Cc2ccc3c(c2)OCO3)CC1 [FIPEXIDE] ?
6.27 µM

Continue with CCC(=O)c1c(O)cc(O)cc1O
> 30 µM

Then what about the molecule CCOc1ccc(/C=C2\NCCc3cc(OCC)c(OCC)cc32)cc1OCC ?
12.3 µM

Field entry: CCS(=O)(=O)N1CC(CC#N)(n2cc(-c3ncnc4[nH]ccc34)cn2)C1
> 10 µM

Now the molecule Nc1nc(-n2cc(C(=O)O)c(=O)c3cc(F)c(N4CC(O)C4)c(Cl)c32)c(F)cc1F
> 30 µM

Can you check CCOC(=O)N[C@@H]1CC[C@@H]2[C@@H](C1)C[C@H]1C(=O)O[C@H](C)[C@H]1[C@H]2/C=C/c1ccc(-c2cccc(F)c2)cn1 next?
26.3 µM

Also, COc1cc2c(cc1OC)[C@H]1C[C@@H](OC(=O)[C@@H](N)C(C)C)[C@H](CC(C)C)CN1CC2 please.
> 10 µM

Query CCOC(=O)C(c1c(O)c2ccccc2oc1=O)c1c(O)c2ccccc2oc1=O [ETHYL BISCOUMACETATE] next
> 30 µM

How about CCC1C(C)=NN=C(c2ccc(OC)c(OC)c2)c2cc(OC)c(OC)cc21 (stereo not drawn) ?
25.3 µM

How about CN(CCOc1ccc(NS(C)(=O)=O)cc1)CCc1ccc(NS(C)(=O)=O)cc1 [DOFETILIDE] ?
> 30 µM

Field entry: O=C(O)CCn1c2c(c3ccccc31)C[C@H](NS(=O)(=O)c1ccc(F)cc1)CC2
> 30 µM

And O=C(NC1CCN(CCCCC2(C(=O)NCC(F)(F)F)c3ccccc3-c3ccccc32)CC1)c1ccccc1-c1ccc(C(F)(F)F)cc1 [LOMITAPIDE] ?
3.86 µM

Now the molecule O=C(O)c1cccc(-c2noc(-c3ccccc3F)n2)c1
> 30 µM

Attribution: ChEMBL document CHEMBL5291721
